Sourced from paper PMC10574532

Experiment: In vivo pharmacokinetics
Design: species or system Male Sprague Dawley rats
Conditions: male, Sprague Dawley, plasma; rat, oral 10 mg/kg vs i.v. 2.5 mg/kg; read-out: absolute bioavailability
experimental-endpoint: bioavailability (%)
Number only, in %; omit the unit.

[in] Param item = CC(=O)N1CCN(c2ccc(OCC3COC(Cn4ccnc4)(c4ccc(Cl)cc4Cl)O3)cc2)CC1 (stereo not shown) [ketoconazole, Ketoconazole] ; retrieve measured bioavailability.
[out] 70

* * *

Experiment: pH-dependent equilibrium solubility of ketoconazole in biorelevant fluids (FaSSIF) with or without precipitation inhibitor
Format: physicochemical
Conditions: FaSSIF (biorelevant fluid), modified Henderson-Hasselbalch fit, 37 °C, read-out: pKa of the fitted pH-solubility function
experimental-endpoint: pKa
// no unit, no text: just the number

[in] Param item = CC(=O)N1CCN(c2ccc(OCC3COC(Cn4ccnc4)(c4ccc(Cl)cc4Cl)O3)cc2)CC1 (stereo not shown) ; retrieve measured pKa.
[out] 6.32
